# assayed.target: T1, mouse EGFL7 (mEGFL7-CB-His) (mouse, UniProt Q9QXT5 22-275)
# T1 sequence: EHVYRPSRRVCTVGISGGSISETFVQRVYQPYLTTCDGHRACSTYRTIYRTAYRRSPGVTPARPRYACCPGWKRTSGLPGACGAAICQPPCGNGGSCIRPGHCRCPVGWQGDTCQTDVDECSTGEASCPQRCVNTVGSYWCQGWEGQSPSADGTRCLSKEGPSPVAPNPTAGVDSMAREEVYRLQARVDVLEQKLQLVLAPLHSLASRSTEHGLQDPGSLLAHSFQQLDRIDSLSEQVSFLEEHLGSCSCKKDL
# protocol: SPR (Biacore), IgG over immobilized mEGFL7-CB at 37 C;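 further: IgG injected as twofold series from 0.5 to 1000 nM, 3 min association and 3.5 min dissociation, reference flow cell subtracted, kinetics fitted to 1:1 Langmuir model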
koff overview
measure: koff

* 18F7.v3 IgG (antibody, name in Kabat numbering, V domains shown, IgG; Kabat numbering; also called 18F7-KA) VH: EVQLVESGGGLVQPGGSLRLSCAASGYTFIDYYMNWVRQAPGKGLEWVGDINLDNGGTHYNQKFKGRFTISRDKSKNTAYLQMNSLRAEDTAVYYCAREGVYHDYDDYAMDYWGQGTLVTVSS VL: DIQMTQSPSSLSASVGDRVTITCRTSQSLVHINGITYLHWYQQKPGKAPKLLIYRVSNRFSGVPSRFSGSGSGTDFTLTISSLQPEDFATYYCSQSTHVPLTFGQGTKVEIKR | 9.05e-05 s⁻¹
* 18F7.v4 IgG (antibody, name in Kabat numbering, V domains shown, IgG; Kabat numbering; also called 18F7-KV) VH: EVQLVESGGGLVQPGGSLRLSCAASGYTFIDYYMNWVRQAPGKGLEWVGDINLDNGGTHYNQKFKGRFTISRDKSKNTVYLQMNSLRAEDTAVYYCAREGVYHDYDDYAMDYWGQGTLVTVSS VL: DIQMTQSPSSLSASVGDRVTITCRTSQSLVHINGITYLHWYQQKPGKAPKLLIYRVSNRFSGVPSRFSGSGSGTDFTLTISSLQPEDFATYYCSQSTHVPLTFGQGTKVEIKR | 0.000208 s⁻¹
* 18F7.v1 IgG (18F7-graft) (antibody, V domains shown, Expressed as IgG) VH: EVQLVESGGGLVQPGGSLRLSCAASGYTFIDYYMNWVRQAPGKGLEWVGDINLDNGGTHYNQKFKGRFTISRDNSKNTLYLQMNSLRAEDTAVYYCAREGVYHDYDDYAMDYWGQGTLVTVSS VL: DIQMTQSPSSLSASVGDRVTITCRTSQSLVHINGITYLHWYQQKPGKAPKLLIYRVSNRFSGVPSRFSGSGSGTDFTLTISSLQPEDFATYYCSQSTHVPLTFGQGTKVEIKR | 0.000274 s⁻¹
* 18F7.v10 IgG (antibody, V domains shown, IgG; Kabat numbering) VH: EVQLVESGGGLVQPGGSLRLSCAASGYTFIDYYMNWVRQAPGKGLEWVGDINLDNGGTHYNQKFKGRFTISRDKSKNTAYLQMNSLRAEDTAVYYCAREGVYHPYDDYAMDYWGQGTLVTVSS VL: DIQMTQSPSSLSASVGDRVTITCRTSQSLVHINGITYLHWYQQKPGKAPKLLIYRVSNRFSGVPSRFSGSGSGTDFTLTISSLQPEDFATYYCSQSTHVPLTFGQGTKVEIK | 0.000195 s⁻¹
* 18F7.v6K IgG (antibody, V domains shown, IgG; also called hu18F7.v6k; h18F7.v6k) VH: EVQLVESGGGLVQPGGSLRLSCAASGYTFIDYYMNWVRQAPGKGLEWVGDINLDNSGTHYNQKFKGRFTISRDKSKNTAYLQMNSLRAEDTAVYYCAREGVYHDYDDYAMDYWGQGTLVTVSS VL: DIQMTQSPSSLSASVGDRVTITCRTSQSLVHINAITYLHWYQQKPGKAPKLLIYRVSNRFSGVPSRFSGSGSGTDFTLTISSLQPEDFATYYCGQSTHVPLTFGQGTKVEIKR | 4.54e-05 s⁻¹
